Quick list: IC50 per entry.
- measured on: Acetyl-CoA carboxylase 2 (Homo sapiens, UniProt O00763)
- Sequence (O00763 whole entry): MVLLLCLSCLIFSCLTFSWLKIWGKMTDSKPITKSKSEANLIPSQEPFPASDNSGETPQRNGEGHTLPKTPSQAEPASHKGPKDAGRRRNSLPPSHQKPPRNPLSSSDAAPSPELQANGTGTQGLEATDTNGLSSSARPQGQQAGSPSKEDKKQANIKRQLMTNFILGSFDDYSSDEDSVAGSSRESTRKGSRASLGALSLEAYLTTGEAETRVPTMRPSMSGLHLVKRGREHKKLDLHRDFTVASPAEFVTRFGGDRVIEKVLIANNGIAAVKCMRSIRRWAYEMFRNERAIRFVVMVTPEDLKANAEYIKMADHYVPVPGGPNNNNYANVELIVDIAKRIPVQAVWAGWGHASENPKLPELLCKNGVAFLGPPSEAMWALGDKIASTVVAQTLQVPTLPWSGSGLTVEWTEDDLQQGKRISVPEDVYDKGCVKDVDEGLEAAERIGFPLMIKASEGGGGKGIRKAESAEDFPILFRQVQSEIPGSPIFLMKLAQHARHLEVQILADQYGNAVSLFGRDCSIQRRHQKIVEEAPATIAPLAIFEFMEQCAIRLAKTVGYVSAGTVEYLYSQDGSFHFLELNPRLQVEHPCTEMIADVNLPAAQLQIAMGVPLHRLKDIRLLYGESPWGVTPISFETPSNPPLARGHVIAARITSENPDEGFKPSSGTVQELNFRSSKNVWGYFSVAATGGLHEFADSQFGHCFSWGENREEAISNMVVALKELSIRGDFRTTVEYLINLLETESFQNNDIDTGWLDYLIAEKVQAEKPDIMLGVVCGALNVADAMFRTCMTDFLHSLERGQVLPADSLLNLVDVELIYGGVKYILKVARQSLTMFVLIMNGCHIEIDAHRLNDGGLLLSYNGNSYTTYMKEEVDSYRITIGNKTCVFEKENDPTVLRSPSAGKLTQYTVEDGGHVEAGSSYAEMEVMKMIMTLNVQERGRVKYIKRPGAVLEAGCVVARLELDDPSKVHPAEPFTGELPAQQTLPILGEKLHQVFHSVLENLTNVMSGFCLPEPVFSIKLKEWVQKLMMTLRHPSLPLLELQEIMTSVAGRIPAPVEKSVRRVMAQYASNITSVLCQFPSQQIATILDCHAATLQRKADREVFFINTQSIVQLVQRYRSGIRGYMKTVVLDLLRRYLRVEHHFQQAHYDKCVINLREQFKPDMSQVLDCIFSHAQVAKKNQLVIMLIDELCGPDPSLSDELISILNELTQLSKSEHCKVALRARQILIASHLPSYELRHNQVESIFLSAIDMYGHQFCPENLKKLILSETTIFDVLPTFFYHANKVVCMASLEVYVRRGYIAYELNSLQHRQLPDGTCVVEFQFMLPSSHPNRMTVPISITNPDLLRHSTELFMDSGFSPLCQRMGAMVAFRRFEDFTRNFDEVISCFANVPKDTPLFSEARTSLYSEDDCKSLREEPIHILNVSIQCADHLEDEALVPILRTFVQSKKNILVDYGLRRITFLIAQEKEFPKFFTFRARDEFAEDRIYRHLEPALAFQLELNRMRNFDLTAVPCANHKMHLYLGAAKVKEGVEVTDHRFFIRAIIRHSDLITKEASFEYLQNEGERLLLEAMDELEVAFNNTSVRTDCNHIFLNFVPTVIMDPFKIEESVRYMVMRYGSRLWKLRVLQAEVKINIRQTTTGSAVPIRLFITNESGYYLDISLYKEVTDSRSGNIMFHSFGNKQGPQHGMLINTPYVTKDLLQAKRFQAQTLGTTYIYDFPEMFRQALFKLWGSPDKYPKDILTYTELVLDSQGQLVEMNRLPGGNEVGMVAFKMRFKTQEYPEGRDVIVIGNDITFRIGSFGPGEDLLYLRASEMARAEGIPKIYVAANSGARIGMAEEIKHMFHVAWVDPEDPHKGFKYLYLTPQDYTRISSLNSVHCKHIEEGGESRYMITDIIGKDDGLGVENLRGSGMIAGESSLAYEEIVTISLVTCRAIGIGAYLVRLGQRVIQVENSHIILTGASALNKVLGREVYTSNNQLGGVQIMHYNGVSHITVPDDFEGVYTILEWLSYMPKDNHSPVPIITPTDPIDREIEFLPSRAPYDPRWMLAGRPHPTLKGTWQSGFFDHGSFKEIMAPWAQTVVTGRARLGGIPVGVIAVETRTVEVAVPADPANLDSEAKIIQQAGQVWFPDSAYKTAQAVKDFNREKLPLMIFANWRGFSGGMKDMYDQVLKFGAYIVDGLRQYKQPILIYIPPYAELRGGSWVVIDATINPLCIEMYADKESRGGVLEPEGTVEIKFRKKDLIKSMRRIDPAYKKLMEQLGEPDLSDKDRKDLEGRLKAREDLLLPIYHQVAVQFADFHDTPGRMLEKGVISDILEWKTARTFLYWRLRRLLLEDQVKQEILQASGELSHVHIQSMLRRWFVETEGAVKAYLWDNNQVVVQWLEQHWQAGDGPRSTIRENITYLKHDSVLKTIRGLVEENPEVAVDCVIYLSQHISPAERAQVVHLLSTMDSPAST
- assay procedure: Inhibition of human recombinant his-tagged ACC2 expressed in baculovirus/Sf9 cell assessed as inorganic phosphate formation […] measured after 1.5 hrs by Malachite green reagent method
readout: IC50 (nM)

* CC(C)(C)OC(=O)NC[C@H]1CC[C@H](CNS(=O)(=O)c2ccc3ccccc3c2)CC1 | 2500
* CN(C)CCC1CCN(c2cc(C(=O)NC[C@H]3CC[C@H](COC(=O)NC(C)(C)C)CC3)c3ccccc3n2)CC1 | 1700
* CC(C)(C)OC(=O)NC[C@H]1CC[C@H](CNC(=O)c2cc(-c3ccc(C(=O)O)cc3)nc3ccccc23)CC1 | 750

Source: ChEMBL document CHEMBL1817551
